Every entry's value here was drawn from patent US6562828B1.

Reported pIC50 values, UniProt:P00742.
Sequence (P00742 235-488 limits assumed): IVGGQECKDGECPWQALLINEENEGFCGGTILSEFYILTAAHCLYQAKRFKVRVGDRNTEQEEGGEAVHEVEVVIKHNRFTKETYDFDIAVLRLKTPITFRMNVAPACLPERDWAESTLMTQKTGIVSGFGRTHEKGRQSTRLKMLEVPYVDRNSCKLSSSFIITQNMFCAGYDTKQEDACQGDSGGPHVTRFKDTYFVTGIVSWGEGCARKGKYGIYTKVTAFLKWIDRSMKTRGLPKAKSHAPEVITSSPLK
Sequence (P00742 41-179 partner limits assumed): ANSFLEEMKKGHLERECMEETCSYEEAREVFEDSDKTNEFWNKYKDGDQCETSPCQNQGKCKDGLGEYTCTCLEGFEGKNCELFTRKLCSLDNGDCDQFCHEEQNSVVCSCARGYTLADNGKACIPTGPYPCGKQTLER
pIC50: −log10 of the molar value. Counter-ions that a name gives are not always drawn.

Compound: CC(=N)N1CCC(Oc2ccc(OCc3nc4cc(C(=N)N)ccc4n3CC(=O)NC[C@H]3CC[C@H](C(=O)O)CC3)cc2)CC1 [Example 53, Dihydrochloride]
pIC50: 6.30
--
Compound: CCOC(=O)/C=C/c1cnccc1N1CCC(COc2ccc3c(c2)CN(C(=N)N)CC3)CC1 [Example 33, Dihydrochloride]
pIC50: 6.52
--
Compound: N=C(N)N1CCc2ccc(OCC3CCN(Cc4ccncc4)CC3)cc2C1 [Example 22, Trihydrochloride]
pIC50: 6.10
--
Compound: CCN=C(N)N1CCC(Oc2ccc(N(Cc3nc4cc(C(=N)N)ccc4n3CC(=O)NC3CCCCC3)C(=O)c3ccc(C(=O)O)cc3)cc2)CC1 [Example 112, Dihydrochloride]
pIC50: 7.70
--
Compound: CCOC(=O)C1(COc2ccc3c(c2)CN(C(=N)N)CC3)CCN(c2cc(C)nc(C)c2)CC1 [Example 10, Dihydrochloride]
pIC50: 6.15
--
Compound: CCOC(=O)CCc1cnccc1N1CCC(COc2ccc3c(c2)CN(C(=N)N)CC3)CC1 [Example 88, Dihydrochloride]
pIC50: 6.70
--
Compound: CCOC(=O)C1(COc2ccc3c(c2)CN(C(=N)N)CC3)CCN(c2ccncc2)CC1 [Example 6, Dihydrochloride]
pIC50: 7.10
